Test system: S. aureus CECT 976
Assay: MIC/MBC by broth microdilution, S. aureus CECT 976
Type: cell-based
Details: Staphylococcus aureus, CECT976; S. aureus CECT 976; broth microdilution, 24 h, 37 °C; read-out: MIC
Experimental: The minimum inhibitory concentration (MIC) and minimum bactericidal concentration (MBC) values of all QHSs were determined by the broth microdilution method, according to the approved M7-A7 (aerobes) standards of the Clinical and Laboratory Standards Institute (CLSI) guidelines. […] Absorbance measurements were performed at the beginning (t = 0 h) and end (t = 24 h) of the incubation period using a microtiter plate absorbance reader (BMG LABTECH FLUOstar Omega). […]
Threshold check on MIC: strictly below 4 µg/mL is Yes; on or above 4 µg/mL is No.

1. CCCCCCCCCC[n+]1cccc2ccccc21.[Br-] [Compound 5c, 1-Decylquinolin-1-ium bromide] :: No
2. CCCCCCCCCC[N+](CC)(CC)CC.[Br-] [Compound 7c, N,N,N-Triethyldecan-1-aminium bromide] :: No
3. CCCCCCCCCCCC[n+]1ccc2ccccc2c1.[Br-] [Compound 3d, 2-Dodecylisoquinolin-2-ium bromide] :: Yes
4. CCCCCCCCCCCCCC[N+](CC)(CC)CC.[Br-] :: Yes
5. CCCCCC[n+]1ccc(C)cc1.[Br-] [Compound 4a, 1-Hexyl-4-methylpyridin-1-ium bromide] :: No
6. CCCCCCCCCCCCCCCCCC[n+]1ccc2ccccc2c1 :: No
7. CCCCCCCCCC[P+](c1ccccc1)(c1ccccc1)c1ccccc1 [Compound 1c, Decyltriphenylphosphonium bromide] :: Yes
8. CCCCCCCCCC[n+]1ccn(C)c1.[Br-] :: No
9. CCCCCCCCCCCCCCCCCC[n+]1ccc(C)cc1.[Br-] :: No
10. CCCCCCCCCCCCCC[n+]1cccc2ccccc21.[Br-] [Compound 5e, 1-Tetradecylquinolin-1-ium bromide] :: Yes
11. CCCCCCCC[n+]1cccc2ccccc21.[Br-] [Compound 5b, 1-Octylquinolin-1-ium bromide] :: No
12. CCCCCCCCCCCCCCCCCC[N+](CC)(CC)CC.[Br-] :: No
13. CCCCCCCCCCCCCCCCCC[n+]1cccc2ccccc21.[Br-] [Compound 5g, 1-Octadecylquinolin-1-ium bromide] :: No
14. CCCCCCCCCCCC[n+]1ccn(C)c1.[Br-] :: Yes
15. CCCCCCCCCCCCCC[n+]1ccc2ccccc2c1.[Br-] [Compound 3e, 2-Tetradecylisoquinolin-2-ium bromide] :: Yes

meta.source: paper PMC10778626
